target: Adenosine receptors; A1 & A3 (Homo sapiens) (UniProt P30542+P0DMS8)
test.name: Selectivity ratio of Ki for human recombinant adenosine A1 receptor to Ki for human recombinant adenosine A3 receptor
quantity.measured: Ratio Ki
Please respond with just the number, no unit label.

Check out these entries, answers already filled in.
| input.smiles | target | Ratio Ki |
| --- | --- | --- |
| COc1ccc(NC(=O)Nc2nc3nn(C)cc3c3nc(-c4ccc(Cl)cc4)nn23)cc1 | Adenosine receptors; A1 & A3 (Homo sapiens) (UniProt P30542+P0DMS8) | 4880 |
| Cn1cc2c(nc(NC(=O)Nc3ccccc3)n3nc(-c4ccc(C(F)(F)F)cc4)nc23)n1 | Adenosine receptors; A1 & A3 (Homo sapiens) (UniProt P30542+P0DMS8) | 3750 |
| O=C(Nc1nc2nn(CCc3ccccc3)cc2c2nc(-c3ccc(F)cc3)nn12)c1ccccc1 | Adenosine receptors; A1 & A3 (Homo sapiens) (UniProt P30542+P0DMS8) | 23.1 |
| O=C(Cc1ccccc1)Nc1nc2nn(CCc3ccccc3)cc2c2nc(-c3ccco3)nn12 | Adenosine receptors; A1 & A3 (Homo sapiens) (UniProt P30542+P0DMS8) | 2.67 |
| O=C(Cc1ccccc1)Nc1nc2nn(CCc3ccccc3)cc2c2nc(-c3ccc(F)cc3)nn12 | Adenosine receptors; A1 & A3 (Homo sapiens) (UniProt P30542+P0DMS8) | 69.5 |

Give the measured Ratio Ki of `Cn1cc2c(nc(NC(=O)Nc3ccc(F)cc3)n3nc(-c4ccc(C(F)(F)F)cc4)nc23)n1` .
2310

Quick one: `O=C(Cc1ccccc1)Nc1nc2nn(CCc3ccccc3)cc2c2nc(-c3ccc(Cl)cc3)nn12`
110

Quick one: `COc1ccc(-c2nc3c4cn(CCc5ccccc5)nc4nc(NC(=O)c4ccccc4)n3n2)cc1`
28.8

Quick one: `O=C(Nc1nc2nn(CCc3ccccc3)cc2c2nc(-c3ccc(Cl)cc3)nn12)c1ccccc1`
19.4

Quick one: `O=C(Cc1ccccc1)Nc1nc2nn(CCc3ccccc3)cc2c2nc(-c3ccccc3)nn12`
63.6

Quick one: `Cn1cc2c(nc(NC(=O)Nc3ccccc3)n3nc(-c4ccco4)nc23)n1`
3710

Quick one: `Cn1cc2c(nc(NC(=O)Nc3ccccc3)n3nc(-c4ccc(Cl)cc4)nc23)n1`
3250

* * *

target: Adenosine receptor A1 (Homo sapiens)
Sequence (P30542 whole entry): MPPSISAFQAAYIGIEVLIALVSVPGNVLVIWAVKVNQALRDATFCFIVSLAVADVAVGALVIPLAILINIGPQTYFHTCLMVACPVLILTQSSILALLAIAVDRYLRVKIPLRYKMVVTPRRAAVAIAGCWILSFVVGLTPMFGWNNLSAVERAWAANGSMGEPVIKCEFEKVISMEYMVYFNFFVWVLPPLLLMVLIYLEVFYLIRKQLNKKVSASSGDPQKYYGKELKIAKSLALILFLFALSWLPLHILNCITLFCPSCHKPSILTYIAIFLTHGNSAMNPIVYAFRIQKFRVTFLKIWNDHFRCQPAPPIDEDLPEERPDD
test.name: Displacement of [3H]CCPA from human recombinant adenosine A1 receptor expressed in CHO cells after 3 hrs
quantity.measured: Ki (µM)
Report the figure in µM without appending any unit label.

Check out these entries, answers already filled in.
| input.smiles | Ki (µM) |
| --- | --- |
| Cn1cc2c(nc(NC(=O)Nc3ccccc3)n3nc(-c4ccc(C(F)(F)F)cc4)nc23)n1 | 12.9 |
| O=C(Nc1nc2nn(CCc3ccccc3)cc2c2nc(-c3ccc(F)cc3)nn12)c1ccccc1 | 0.395 |
| O=C(Cc1ccccc1)Nc1nc2nn(CCc3ccccc3)cc2c2nc(-c3ccccc3)nn12 | 0.192 |
| Cn1cc2c(nc(NC(=O)Nc3ccc(F)cc3)n3nc(-c4ccc(C(F)(F)F)cc4)nc23)n1 | 4.42 |
| O=C(Cc1ccccc1)Nc1nc2nn(CCc3ccccc3)cc2c2nc(-c3ccc(F)cc3)nn12 | 0.232 |

Notebook: pull reported Ki for Adenosine receptor A1 (Homo sapiens), entry `O=C(Cc1ccccc1)Nc1nc2nn(CCc3ccccc3)cc2c2nc(-c3ccc(Cl)cc3)nn12`
0.932

Quick one: `O=C(Nc1nc2nn(CCc3ccccc3)cc2c2nc(-c3ccc(Cl)cc3)nn12)c1ccccc1`
0.221

Quick one: `COc1ccc(-c2nc3c4cn(CCc5ccccc5)nc4nc(NC(=O)c4ccccc4)n3n2)cc1`
0.831

Quick one: `Cn1cc2c(nc(NC(=O)Nc3ccccc3)n3nc(-c4ccc(Cl)cc4)nc23)n1`
5.55

Quick one: `COc1ccc(NC(=O)Nc2nc3nn(C)cc3c3nc(-c4ccc(Cl)cc4)nn23)cc1`
6.49

* * *

target: Adenosine receptor A2b (Homo sapiens, UniProt P29275)
Sequence (P29275 whole entry): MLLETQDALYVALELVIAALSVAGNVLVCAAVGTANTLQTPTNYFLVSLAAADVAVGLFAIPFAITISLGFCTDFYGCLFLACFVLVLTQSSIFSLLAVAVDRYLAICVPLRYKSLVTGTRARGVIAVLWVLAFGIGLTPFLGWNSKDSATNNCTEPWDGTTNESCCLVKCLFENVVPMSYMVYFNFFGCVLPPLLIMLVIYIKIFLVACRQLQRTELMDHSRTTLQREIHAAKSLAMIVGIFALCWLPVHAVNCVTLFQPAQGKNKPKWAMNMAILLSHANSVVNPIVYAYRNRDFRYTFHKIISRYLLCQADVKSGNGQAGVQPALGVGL
test.name: Antagonist activity human recombinant adenosine 2B receptor expressed in CHO cells assessed as inhibition of NECA-stimulated adenylyl cyclase activity
Parameter Ki: see the listing below.

| input.smiles | measured |
| --- | --- |
| Cn1cc2c(nc(N)n3nc(-c4ccc(C(F)(F)F)cc4)nc23)n1 | > 10 µM |
| COc1ccc(NC(=O)Nc2nc3nn(C)cc3c3nc(-c4ccc(-c5ccccc5)cc4)nn23)cc1 | > 10 µM |

Give the measured Ki of `Cn1cc2c(nc(NC(=O)Nc3ccccc3)n3nc(-c4ccc(Br)cc4)nc23)n1` .
> 10 µM

Quick one: `Cn1cc2c(nc(NC(=O)Nc3ccc(F)cc3)n3nc(-c4ccc(Br)cc4)nc23)n1`
> 10 µM

Quick one: `O=C(Cc1ccccc1)Nc1nc2nn(CCc3ccccc3)cc2c2nc(-c3ccc(Cl)cc3)nn12`
> 30 µM

Quick one: `O=C(Nc1nc2nn(CCc3ccccc3)cc2c2nc(-c3ccc(Cl)cc3)nn12)c1ccccc1`
> 30 µM

Quick one: `COc1ccc(NC(=O)Nc2nc3nn(C)cc3c3nc(-c4ccc(Br)cc4)nn23)cc1`
> 10 µM

Quick one: `O=C(Cc1ccccc1)Nc1nc2nn(CCc3ccccc3)cc2c2nc(-c3ccc(Br)cc3)nn12`
> 10 µM

Quick one: `O=C(Cc1ccccc1)Nc1nc2nn(CCc3ccccc3)cc2c2nc(-c3ccc(F)cc3)nn12`
> 30 µM

Quick one: `Cn1cc2c(nc(N)n3nc(-c4ccc(-c5ccccc5)cc4)nc23)n1`
> 10 µM

Quick one: `COc1ccc(NC(=O)Nc2nc3nn(C)cc3c3nc(-c4ccc(C(F)(F)F)cc4)nn23)cc1`
> 10 µM

Quick one: `O=C(Nc1nc2nn(CCc3ccccc3)cc2c2nc(-c3ccc(F)cc3)nn12)c1ccccc1`
> 30 µM

* * *

target: Adenosine receptor A3 (Homo sapiens)
Sequence (P0DMS8 whole entry): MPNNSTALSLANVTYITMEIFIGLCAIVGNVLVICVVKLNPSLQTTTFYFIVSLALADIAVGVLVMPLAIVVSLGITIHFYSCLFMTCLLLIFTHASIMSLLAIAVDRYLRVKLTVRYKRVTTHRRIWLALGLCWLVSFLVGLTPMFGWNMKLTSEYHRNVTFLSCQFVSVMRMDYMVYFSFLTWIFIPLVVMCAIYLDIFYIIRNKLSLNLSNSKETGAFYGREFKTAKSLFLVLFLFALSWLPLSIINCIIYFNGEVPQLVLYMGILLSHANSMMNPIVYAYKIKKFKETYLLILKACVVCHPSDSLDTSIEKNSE
test.name: Displacement of [3H]NECA from human recombinant adenosine A3 receptor expressed in CHO cells after 3 hrs
quantity.measured: log10 Ki (log10 of the value in nM)
Use the decimal logarithm of Ki (nM).

| input.smiles | target | quantity.measured | measured |
| --- | --- | --- | --- |
| Cn1cc2c(nc(NC(=O)Nc3ccccc3)n3nc(-c4ccc(C(F)(F)F)cc4)nc23)n1 | Adenosine receptor A3 (Homo sapiens) | log10 Ki | 0.54 |
| Cn1cc2c(nc(NC(=O)Nc3ccc(F)cc3)n3nc(-c4ccc(-c5ccccc5)cc4)nc23)n1 | Adenosine receptor A3 (Homo sapiens) | log10 Ki | 0.61 |
| O=C(Nc1nc2nn(CCc3ccccc3)cc2c2nc(-c3ccc(F)cc3)nn12)c1ccccc1 | Adenosine receptor A3 (Homo sapiens) | log10 Ki | 1.23 |
| Cn1cc2c(nc(N)n3nc(-c4ccc(C(F)(F)F)cc4)nc23)n1 | Adenosine receptor A3 (Homo sapiens) | log10 Ki | 2.48 |
| COc1ccc(-c2nc3c4cn(CCc5ccccc5)nc4nc(NC(=O)c4ccccc4)n3n2)cc1 | Adenosine receptor A3 (Homo sapiens) | log10 Ki | 1.46 |

Notebook: pull reported log10 Ki for Adenosine receptor A3 (Homo sapiens), entry `O=C(Nc1nc2nn(CCc3ccccc3)cc2c2nc(-c3ccc(Cl)cc3)nn12)c1ccccc1`
1.06

Quick one: `COc1ccc(NC(=O)Nc2nc3nn(C)cc3c3nc(-c4ccc(-c5ccccc5)cc4)nn23)cc1`
0.32

Quick one: `Cn1cc2c(nc(NC(=O)Nc3ccccc3)n3nc(-c4ccc(-c5ccccc5)cc4)nc23)n1`
0.77

* * *

target: Adenosine receptor A3 (Homo sapiens)
test.name: Displacement of [3H]NECA from human recombinant adenosine A3 receptor expressed in CHO cells after 3 hrs
quantity.measured: log10 of Ki (log10 of the value in nM)
Use the decimal logarithm of Ki (nM).

| input.smiles | log10 of Ki |
| --- | --- |
| O=C(Cc1ccccc1)Nc1nc2nn(CCc3ccccc3)cc2c2nc(-c3ccccc3)nn12 | 0.48 |
| COc1ccc(NC(=O)Nc2nc3nn(C)cc3c3nc(-c4ccc(Cl)cc4)nn23)cc1 | 0.12 |

Give the measured log10 of Ki of `O=C(Cc1ccccc1)Nc1nc2nn(CCc3ccccc3)cc2c2nc(-c3ccc(F)cc3)nn12` .
0.52
